Entry source: patent US20240301319A1

# log10 Volatility annotations
Experiment: Volatility of perfuming compounds (Tables 4 to 10), with top/middle/bottom note type
Assay type: physicochemical
Settings: Table 8, perfuming compounds having a sweet note
property.measured: log10 Volatility (log10 of the value in μg/l air)

{"compound": "O=Cc1ccccc1", "log10 Volatility": 3.91}
{"compound": "C=CCOC(=O)CCC1CCCCC1 [ALLYL 3-CYCLOHEXYLPROPANOATE]", "log10 Volatility": 1.88}
{"compound": "CC/C=C\\CCOC(=O)C/C=C\\CC [(3Z)-3-hexen-1-yl (3Z)-3-hexenoate]", "log10 Volatility": 2.32}
{"compound": "CCCCCC1CCCC1=O (racemic) [(+−)-2-pentylcyclopentanone]", "log10 Volatility": 2.75}
{"compound": "C=CCOC(=O)CCCCCC [ALLYL HEPTANOATE]", "log10 Volatility": 3.09}
{"compound": "COc1cc(C=O)ccc1OC(=O)C(C)C", "log10 Volatility": 0.00}

----------
Experiment: Volatility of perfuming compounds (Tables 4 to 10), with top/middle/bottom note type
Type: physicochemical
Details: Table 7, citrus note
Where a name gives a salt, the structure may show the parent alone.
# thresholds on Volatility (μg/l air) define classes: low (below 20 μg/l air), mid (20 μg/l air to below 1000 μg/l air), high (1000 μg/l air or more)

{"molecule": "CC(C)=CCC/C(C)=C/CO", "label": "mid"}
{"molecule": "O=C(Cc1ccccc1)OCCc1ccccc1 [2-PHENYLETHYL PHENYLACETATE]", "label": "low"}
{"molecule": "CCC/C=C/C=O", "label": "high"}
{"molecule": "CC1=CCC(C(C)C)=CC1", "label": "high"}
{"molecule": "CC(C)=CCCC(C)CCOCC=O (racemic)", "label": "low"}
{"molecule": "C=CCCCCCCCCO", "label": "mid"}
{"molecule": "CC(C)CCCC(C)CCO (racemic)", "label": "mid"}
{"molecule": "CC1CCC(=O)O1 (racemic) [(+−)-4-PENTANOLIDE]", "label": "high"}
{"molecule": "CCCCCCCCC=O", "label": "high"}
{"molecule": "COCC(C)Cc1ccccc1 (racemic) [(+−)-(3-methoxy-2-methylpropyl)benzene]", "label": "mid"}
{"molecule": "O=C(OCc1ccccc1)c1ccccc1 [BENZYL BENZOATE]", "label": "low"}
{"molecule": "CCC(C)C(=O)OC(C)C (racemic) [(+−)-ISOPROPYL 2-METHYLBUTANOATE]", "label": "high"}
{"molecule": "CCCCCCCCOC(C)=O [octyl acetate]", "label": "mid"}
{"molecule": "CC(=O)OC(c1ccccc1)C(Cl)(Cl)Cl (racemic)", "label": "low"}
{"molecule": "CCOc1ccc2ccccc2c1", "label": "mid"}
{"molecule": "O=C1CCCCCCC/C=C/CCCCCCO1 [(10E)-oxacycloheptadec-10-en-2-one]", "label": "low"}
{"molecule": "CCCCCCCOC(C)=O [heptyl acetate]", "label": "high"}
{"molecule": "O=COCCc1ccccc1 [2-PHENYLETHYL FORMATE]", "label": "mid"}
{"molecule": "CCCCC/C(C=O)=C\\c1ccccc1 [(E)-2-PENTYL-3-PHENYL-2-PROPENAL]", "label": "low"}
{"molecule": "CCCCC[C@H]1C(=O)CC[C@@H]1CC(=O)OC (racemic)", "label": "low"}
{"molecule": "C=C(C)C1CC=C(C)CC1 (single isomer, unassigned; (+)) [(+)-LIMONENE]", "label": "high"}
{"molecule": "C=CC(C)(O)CCC=C(C)C (racemic) [(+−)-3,7-dimethyl-1,6-octadien-3-ol]", "label": "mid"}

----------
Experiment: Odor threshold and odor value of perfuming compounds (Tables 4 to 10)
Settings: Table 8, perfuming compounds having a sweet note

{"compound": "C=CCSSCC=C [DIALLYL DISULFIDE]", "Odor Threshold": "3.98E−05 μg/l air"}
{"compound": "CCCCCC(=O)OCC [ETHYL HEXANOATE]", "Odor Threshold": "9.11E−04 μg/l air"}
{"compound": "CCCCCCC1CCC(=O)O1 (racemic) [(+−)-4-DECANOLIDE]", "Odor Threshold": "1.61E−04 μg/l air"}
{"compound": "CC1=CC[C@H](C(C)CC2CCCC2=O)CC1 (stereo partly drawn)", "Odor Threshold": "1.66E−04 μg/l air"}
{"compound": "COc1cccc(OC)c1O [2,6-DIMETHOXYPHENOL]", "Odor Threshold": "8.01E−06 μg/l air"}
{"compound": "CC(=O)CCC1=C(C)CCCC1(C)C", "Odor Threshold": "8.51E−03 μg/l air"}
{"compound": "OCCc1ccccc1 [2-PHENYLETHANOL]", "Odor Threshold": "1.02E−04 μg/l air"}
{"compound": "O=C(Cc1ccccc1)OCCc1ccccc1 [2-PHENYLETHYL PHENYLACETATE]", "Odor Threshold": "9.08E−04 μg/l air"}
{"compound": "CCCCCC1CCCC1=O (racemic) [(+−)-2-pentylcyclopentanone]", "Odor Threshold": "1.28E−03 μg/l air"}
{"compound": "CCCC1CCC(=O)O1 (racemic) [(+−)-4-HEPTANOLIDE]", "Odor Threshold": "5.18E−04 μg/l air"}
{"compound": "CCCCC1CCCC(=O)O1 (stereo not drawn) [5-NONANOLIDE]", "Odor Threshold": "1.16E−05 μg/l air"}
{"compound": "CC(=O)OCCC1CCCCC1 [2-CYCLOHEXYL ETHYL ACETATE]", "Odor Threshold": "4.49E−02 μg/l air"}

----------
Assay: Odor threshold and odor value of perfuming compounds (Tables 4 to 10)
Conditions: Table 8, perfuming compounds having a sweet note
# Odor Threshold annotations

{"compound": "Cc1ncsc1CCO", "units.label": "μg/l air", "Odor Threshold": "2.43E−04"}
{"compound": "C/C=C/c1ccc(OC)cc1 [1-methoxy-4-[(1E)-1-propen-1-yl]benzene]", "units.label": "μg/l air", "Odor Threshold": "1.23E−03"}
{"compound": "CCOC(=O)C(=O)C(C)CC (racemic) [(+−)-ETHYL 3-METHYL-2-OXOPENTANOATE]", "units.label": "μg/l air", "Odor Threshold": "5.06E−04"}
{"compound": "Cc1cnc(C)c(C)n1", "units.label": "μg/l air", "Odor Threshold": "2.82E−04"}
{"compound": "CCCCOC(C)=O [BUTYL ACETATE]", "units.label": "μg/l air", "Odor Threshold": "4.18E−01"}
{"compound": "CC(=O)c1ccccc1", "units.label": "μg/l air", "Odor Threshold": "6.61E−03"}
{"compound": "CCCC(=O)OC(C)(C)Cc1ccccc1 [1,1-DIMETHYL-2-PHENYLETHYL BUTANOATE]", "units.label": "μg/l air", "Odor Threshold": "2.68E−02"}
{"compound": "CCCCCCCC1CCCC(=O)O1 (racemic) [(+−)-6-heptyltetrahydro-2H-pyran-2-one]", "units.label": "μg/l air", "Odor Threshold": "1.27E−04"}
{"compound": "C/C=C(\\C)C(=O)OCCCCCC [hexyl (2E)-2-methyl-2-butenoate]", "units.label": "μg/l air", "Odor Threshold": "1.16E−02"}
{"compound": "CCCCO", "units.label": "μg/l air", "Odor Threshold": "8.70E−02"}

----------
Assay: Volatility of perfuming compounds (Tables 4 to 10), with top/middle/bottom note type
Assay type: physicochemical
Conditions: Table 6, perfuming compounds having a fruity note
Structures can show the parent of a compound that is named as a salt.
# Volatility annotations

{"compound": "CC(=O)OC(C)CCC=C(C)CCC=C(C)C (centres unmarked) [1,5,9-TRIMETHYL-4,8-DECADIENYL ACETATE]", "Volatility [μg/l air]": 14.74}
{"compound": "CCOC(=O)/C=C/c1ccccc1 [ETHYL (E)-3-PHENYL-2-PROPENOATE]", "Volatility [μg/l air]": 20.55}
{"compound": "Cc1occc(=O)c1O [3-HYDROXY-2-METHYL-4(4H)-PYRANONE]", "Volatility [μg/l air]": 92.42}
{"compound": "C/C=C/C(=O)C1=C(C)CCCC1(C)C", "Volatility [μg/l air]": 81.66}
{"compound": "CCCCCC(=O)OC [METHYL HEXANOATE]", "Volatility [μg/l air]": 23345.90}
{"compound": "CC(C)(O)CCC1CCCCC1", "Volatility [μg/l air]": 79.34}
{"compound": "C=C(C)C1CC=C(C)CC1 (single isomer, unassigned; (+)) [(+)-LIMONENE]", "Volatility [μg/l air]": 10216.93}
{"compound": "CCCCCC1CCCC(=O)O1 (racemic) [(+−)-6-pentyltetrahydro-2H-pyran-2-one]", "Volatility [μg/l air]": 9.61}
{"compound": "C=CC(C)(O)CCC=C(C)C (racemic) [(+−)-3,7-dimethyl-1,6-octadien-3-ol]", "Volatility [μg/l air]": 896.72}
{"compound": "CCc1occc(=O)c1O [2-ETHYL-3-HYDROXY-4(4H)-PYRANONE]", "Volatility [μg/l air]": 48.86}
{"compound": "CCC(=O)OC/C=C/c1ccccc1 [(E)-3-PHENYL-2-PROPENYL PROPANOATE]", "Volatility [μg/l air]": 8.14}
{"compound": "O=C(OCc1ccccc1)c1ccccc1 [BENZYL BENZOATE]", "Volatility [μg/l air]": 0.85}
{"compound": "CCCOC(=O)[C@H](C)OC(C)(C)CC", "Volatility [μg/l air]": 995.16}
{"compound": "CCCCCC(C#N)CCC (racemic) [(+−)-2-propylheptanenitrile]", "Volatility [μg/l air]": 439.00}
{"compound": "CC/C=C\\CCOC(=O)OC [(3Z)-hex-3-en-1-yl methyl carbonate]", "Volatility [μg/l air]": 1506.33}
{"compound": "CC/C=C\\CCOC(=O)CCC [(3Z)-3-hexen-1-yl butyrate]", "Volatility [μg/l air]": 1674.15}
{"compound": "CC(=O)OCC=C(C)C [3-methyl-2-buten-1-yl acetate]", "Volatility [μg/l air]": 27705.98}
{"compound": "CCOC(=O)C(C)CC (racemic) [(+−)-ethyl 2-methylbutanoate]", "Volatility [μg/l air]": 83769.16}
{"compound": "CCOC(=O)C12CCCC1C1CCC2C1 (centres unmarked)", "Volatility [μg/l air]": 111.67}
{"compound": "CC/C=C\\CCOC(=O)c1ccccc1 [(3Z)-3-hexen-1-yl benzoate]", "Volatility [μg/l air]": 11.05}
{"compound": "OCCc1ccccc1", "Volatility [μg/l air]": 159.75}
{"compound": "CCCCCCC(C)=O", "Volatility [μg/l air]": 6639.71}
{"compound": "CC(C)C(=O)OCCc1ccccc1 [2-PHENYLETHYL ISOBUTYRATE]", "Volatility [μg/l air]": 67.38}
{"compound": "CC(C)CCOCCc1ccccc1", "Volatility [μg/l air]": 110.11}
{"compound": "COC(=O)/C=C/c1ccccc1 [METHYL (E)-3-PHENYL-2-PROPENOATE]", "Volatility [μg/l air]": 61.65}
{"compound": "CCCCC[C@@H]1OC(=O)C[C@H]1C (racemic) [(+−)-TRANS-3-METHYL-4-NONANOLIDE]", "Volatility [μg/l air]": 21.05}
{"compound": "CC(C)C(=O)OCCOc1ccccc1 [2-phenoxyethyl 2-methylpropanoate]", "Volatility [μg/l air]": 10.05}
{"compound": "CCCCC1CCCC(=O)O1 (centres unmarked) [5-NONANOLIDE]", "Volatility [μg/l air]": 23.87}
{"compound": "C[C@@H]1CC[C@@H](C(C)(C)S)C(=O)C1", "Volatility [μg/l air]": 155.12}
{"compound": "C=CC(C)CC(=O)CC(C)C (racemic)", "Volatility [μg/l air]": 4203.89}
{"compound": "CCCC(=O)OC(C)(C)Cc1ccccc1 [1,1-DIMETHYL-2-PHENYLETHYL BUTANOATE]", "Volatility [μg/l air]": 34.65}
{"compound": "CCCCCCOC(=O)CCCCC [HEXYL HEXANOATE]", "Volatility [μg/l air]": 105.52}
{"compound": "C=CC(=C)CCC=C(C)C", "Volatility [μg/l air]": 15094.56}
{"compound": "CCCCCC1CCCC1=O (racemic) [(+−)-2-pentylcyclopentanone]", "Volatility [μg/l air]": 560.22}
{"compound": "CC/C=C\\CCOC(=O)C/C=C\\CC [(3Z)-3-hexen-1-yl (3Z)-3-hexenoate]", "Volatility [μg/l air]": 210.68}
{"compound": "CCCCCCCCOC(C)=O [octyl acetate]", "Volatility [μg/l air]": 666.51}
{"compound": "CC(C)=CCCC(C)CCOC=O (racemic) [(+−)-3,7-DIMETHYL-6-OCTENYL FORMATE]", "Volatility [μg/l air]": 262.84}
{"compound": "COc1ccc(COC(C)=O)cc1 [4-METHOXYBENZYL ACETATE]", "Volatility [μg/l air]": 17.59}
{"compound": "CC(C)(C)C(=O)OCCc1ccccc1 [2-PHENYLETHYL PIVALATE]", "Volatility [μg/l air]": 71.44}
{"compound": "CC(=O)OC/C=C/c1ccccc1 [(E)-3-PHENYL-2-PROPENYL ACETATE]", "Volatility [μg/l air]": 20.47}
{"compound": "C=C(C)CC(C)OC(=O)C(C)C (racemic)", "Volatility [μg/l air]": 9902.98}
